Recorded pKi by entry
- assay.summary: DRUGMATRIX: Sodium/nucleoside co-transporter radioligand binding (ligand: nitrobenzylthioinosine)
- Type: cell membranes, Cavia porcellus, Dunkin-Hartley, Cerebral cortex, Membrane
- applied.conditions: Not Active = under 50% inhibition at 10 µM; read-out: Ki
Value format note: pKi is -log10 of concentration (mol/L); just state the number.

- molecule: "CC(=O)N1CCN(c2ccc(OCC3COC(Cn4ccnc4)(c4ccc(Cl)cc4Cl)O3)cc2)CC1 (configuration not stated)"
  pKi: 5.82

Report pKi for COCCOC(=O)C1=C(C)NC(C)=C(C(=O)OC(C)C)C1c1cccc([N+](=O)[O-])c1 (configuration not stated) please.
6.36
